Origin of values: ChEMBL document CHEMBL4715689

# TEST SYSTEM: UniProt:P17706
# Sequence (P17706 whole entry, the tested form may be a part): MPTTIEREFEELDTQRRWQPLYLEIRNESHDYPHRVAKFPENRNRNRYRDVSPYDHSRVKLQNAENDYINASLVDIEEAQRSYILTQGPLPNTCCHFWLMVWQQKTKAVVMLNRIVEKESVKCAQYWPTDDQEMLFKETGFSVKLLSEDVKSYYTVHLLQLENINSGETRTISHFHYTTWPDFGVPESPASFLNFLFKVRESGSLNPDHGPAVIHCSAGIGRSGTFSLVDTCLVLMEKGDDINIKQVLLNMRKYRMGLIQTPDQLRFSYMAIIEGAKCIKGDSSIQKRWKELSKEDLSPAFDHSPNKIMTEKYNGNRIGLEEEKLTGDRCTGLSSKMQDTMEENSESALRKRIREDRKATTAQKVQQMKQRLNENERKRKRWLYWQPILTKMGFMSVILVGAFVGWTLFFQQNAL
# METHOD DESCRIPTION: Inhibition of recombinant human TCPTP (1 to 317 residues) expressed in Escherichia coli using DifMup as substrate preincubated for 30 mins followed by substrate addition and measured immediately
Each record is given rule met if its reported Ki is strictly below 6 µM. Records at or above 6 µM are given rule not met.

Answered examples (5):
{"columns": ["COMPOUND", "QUALITATIVE LABEL"],
 "data": [
  ["CCC(C)C(NC1=NS(=O)(=O)c2ccccc21)C(=O)NC[C@@H](NC(=O)C1CCCC(NC(=O)C(C2CC2)n2cc(CC3CCCCC3)nn2)C1)C(=O)NC(CCCCNC(=O)CCCC[C@@H]1SCC2NC(=O)NC21)C(N)=O (some centres not stated)", "rule met"],
  ["CCCCC(NC1=NS(=O)(=O)c2ccccc21)C(=O)NCC(NC(=O)CC1(NC(=O)C(C2CC2)n2cc(CC3CCCCC3)nn2)CCCCC1)C(=O)NC(CCCCNC(=O)CCCC[C@@H]1SCC2NC(=O)NC21)C(N)=O (some centres not stated)", "rule met"],
  ["CCCCC(NC1=NS(=O)(=O)c2ccccc21)C(=O)NCC(NC(=O)CC1(NC(=O)C(C2CC2)n2cc(CC3CCCCC3)nn2)CCCCC1)C(N)=O (configuration not stated)", "rule met"],
  ["CCC(C)C(NC1=NS(=O)(=O)c2ccccc21)C(=O)NC[C@@H](NC(=O)CC1(NC(=O)[C@H](CC(C)(C)C)n2cc(CC3CCCCC3)nn2)CCCCC1)C(N)=O (some centres not stated)", "rule not met"],
  ["CCCCC(NC1=NS(=O)(=O)c2ccccc21)C(=O)NCC(NC(=O)c1ccccc1NC(=O)c1n[nH]c2ccc([N+](=O)[O-])cc12)C(=O)NC(CCCCNC(=O)CCCC[C@@H]1SCC2NC(=O)NC21)C(N)=O (some centres not stated)", "rule not met"]
]}

QUERY: Strictly below 6 µM: is that where Ki of CCCCC(NC1=NS(=O)(=O)c2ccccc21)C(=O)NC[C@@H](NC(=O)C1(NC(=O)[C@H](CC(C)(C)C)n2cc(CC3CCCCC3)nn2)CC1)C(N)=O (some centres not stated) sits?
RESULT: rule not met

QUERY: Next entry: CCCCC(NC1=NS(=O)(=O)c2ccccc21)C(=O)NCC(NC(=O)COCCOCCNC(=O)C(C1CC1)n1cc(-c2cccc(OC)c2)nn1)C(=O)NC(CCCCNC(=O)CCCC[C@@H]1SCC2NC(=O)NC21)C(N)=O (some centres not stated)
RESULT: rule not met
